molecular target: T1, extracellular domain (ECD) of human epidermal growth factor receptor 2 (HER2) (Homo sapiens, UniProt P04626); assay: SPR; BIAcore T200; HER2/ECD immobilised on a CM5 chip by amine coupling to 1000 RU; IgG flowed in PBST (0.05% Tween 20) at 30 uL/min; regeneration 10 mM glycine pH 1.5; global fit to a 1:1 binding model; settings: both partners purified
T1 construct: human epidermal growth factor receptor 2 (HER2), extracellular domain; also called HER2/ECD
Measured Kd by item
// units = nM; emit number, no label

Check out these entries, answers already filled in.
BINDER	Kd, nM
GH2-14 IgG (antibody, V domains shown, source: HEK293-F, transient transfection, purified (Protein A, Superdex 200)) VH: EVQLVESGGGLVQPGGSLRLSCAASGFTINDHGIHWVRQAPGKGLEWVAGIGPFGGYTSYADSVKGRFTISADTSKNTAYLQMNSLRAEDTAVYYCARFNFNDVGGMDYWGQGTLVTVSS VL: DIQMTQSPSSLSASVGDRVTITCRASQDVGGGVAWYQQKPGKAPKLLISGPPYLYSGVPSRFSGSGSGTDFTLTISSLQPEDFATYYCQQYFNYPITFGQGTKVEIK	17
GH2-75 IgG (antibody, V domains shown, source: HEK293-F, transient transfection, purified (Protein A, Superdex 200)) VH: EVQLVESGGGLVQPGGSLRLSCAASGSTIGNSGIHWVRQAPGKGLEWVAYIGPYGGYTSYADSVKGRFTISADTSKNTAYLQMNSLRAEDTAVYYCARFDDYHWDGMDYWGQGTLVTVSS VL: DIQMTQSPSSLSASVGDRVIITCRASQDVSGYVAWYQQKPGKAPKLLIYSSGVPSRFSGSGSGTDFTLTISSLQPEDFATYYCQQYYNWPVTFGQGTKVEIK	0.177

Then there is this binder:
Kd reported for this binder GH2-91 IgG (antibody, V domains shown, source: HEK293-F, transient transfection, purified (Protein A, Superdex 200)) VH: EVQLVESGGGLVQPGGSLRLSCAASGFTINNFGIHWVRQAPGKGLEWVASIGPFWGYTSYADSVKGRFTISADTSKNTAYLQMNSLRAEDTAVYYCARFGNDYDGVMDYWGQGTLVTVSS VL: DIQMTQSPSSLSASVGDRVTITCRASHDVGWGVAWYQQKPGKAPKLLISWPTYLYSGVPSRFSGSGSGTDFTLTISSLQPEDFATYYCQQYFSYPITFGQGTKVEIK : 2.47
